TARGET_OR_SYSTEM: T1, Human HARS (human, UniProt P12081 1-509, limits assumed)
T1 construct: also called human HRS; human histidyl-tRNA synthetase
T1 sequence: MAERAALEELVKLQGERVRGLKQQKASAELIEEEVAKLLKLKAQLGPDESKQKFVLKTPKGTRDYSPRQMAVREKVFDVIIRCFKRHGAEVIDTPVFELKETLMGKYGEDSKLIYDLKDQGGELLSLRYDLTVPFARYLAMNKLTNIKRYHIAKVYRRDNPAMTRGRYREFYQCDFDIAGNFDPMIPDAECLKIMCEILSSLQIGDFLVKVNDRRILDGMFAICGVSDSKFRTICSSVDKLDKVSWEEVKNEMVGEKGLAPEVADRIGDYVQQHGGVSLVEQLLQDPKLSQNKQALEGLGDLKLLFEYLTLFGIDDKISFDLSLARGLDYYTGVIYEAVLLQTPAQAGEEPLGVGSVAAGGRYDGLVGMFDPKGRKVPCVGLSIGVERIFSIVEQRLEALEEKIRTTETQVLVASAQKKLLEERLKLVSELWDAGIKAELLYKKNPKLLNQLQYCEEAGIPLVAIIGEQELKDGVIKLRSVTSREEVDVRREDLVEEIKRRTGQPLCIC
EXPERIMENT_SUMMARY: SPR (ProteOn); HRS protein immobilized, antibody as analyte
REPORTED_ENDPOINT: Kd
Kindly format the answer as number then unit.

Kd reported for this binder KL31-478 (antibody, V domains shown, Humanized; IgG1m(zf) kappa) VH: QVQLVQSGAEVKKPGASVKVSCKASGYTFTDYCIGWIRQAPGQGLEWMGDICPGDTYTNDNEKFKDRATMTADTSTSTAYMELSSLRSEDTAVYYCARGEEQLGLRNAMDYWGQGTLVTVSS VL: EIVLTQSPATLSLSPGERATLSCQSQSVSTSTYNYMHWYQQKPGQAPRLLIKYASNLESGIPDRFSGSGSGTDFTLTISRLEPEDFATYYCGHSYEIPWTFGGGTKVEIK : 76 pM

Kd reported for this binder AB04-483 (antibody, V domains shown, Human; IgG1m(zf) kappa) VH: QVQLVESGGGLVKPGGSLRLSCAASGFTFSDYYMTWIRQAPGKGLEWVSYISGSNAYTNYADSVKGRFTISRDNAKNSLYLQMNSLRDEDTAVYFCARYVYQVVAIGDYWGQGTLVTVSS VL: DIQMTQSPSSVSASVGDRVTITCRASQGISSWLAWYQQKPGRAPKLLIFAASSLQSGVPSRFSGSGSGTHFTLTISSLQPEDFATYYCQQAKSFPYTFGQGTKLEIK : 265 pM

Kd reported for this binder KL31-513 (antibody, IgG4, V domains shown, Humanized; IgG4-2 kappa) VH: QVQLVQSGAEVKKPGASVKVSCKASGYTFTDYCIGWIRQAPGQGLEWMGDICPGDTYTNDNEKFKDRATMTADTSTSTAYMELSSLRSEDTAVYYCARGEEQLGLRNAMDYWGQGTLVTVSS VL: EIVLTQSPATLSLSPGERATLSCQSQSVSTSTYNYMHWYQQKPGQAPRLLIKYASNLESGIPDRFSGSGSGTDFTLTISRLEPEDFATYYCGHSYEIPWTFGGGTKVEIK : 116 pM
